- assay protocol: yeast display, Sf9 membrane polyspecificity reagent, FACS + sequencing; frameworks hold sequencing errors
measurement type: polyreactivity (PSR sort gate)

Previously resolved entries follow.
# residue sequence, polyreactivity (PSR sort gate)
measured = [
    ("QVQLVESGGGLVQAGGSLPLSCAASGFTFDKYAMGWYRQAPGKERELVAAISNSGGRTYYADSVKGRFTISRDNAKKTVYLQMNSLKPEDTAVYYCAAKFRYQYVRVAREYYYWGQGTQVTVSS", "high polyreactivity"),
    ("QVQLVESGGGLVQAGGSLRLSCAASGSTFWLYAMGWYREAPGKERELVATISERGGSTYYADSVKGRFTISRDYAKNTVYFQMNSLKPEDTAVYYCAADQFHYPRGRRYDYWGQGTQVTVSS", "low polyreactivity"),
    ("QVQLVESGGGLVQAGGSLRLSCAASGSTFSSNAMGWYRQAPGKERELVAAISWSGASTYYADSVKGRFTISRDNAKNTVYLQMNSLKPEDTAVYYCATVWQAKYYGNHRFGYWGQGTQVTVSS", "low polyreactivity"),
    ("QVQLVESGGGLVQAGGSLRLSCAASGSTFNRYAMGWYRQAPGKERELVAAISGSGSSTYYADSVKGRFTISRDNAKNTVYLQMNSLKPEDTAVYYCAAVRYEYDYWGQGTQVTVSS", "high polyreactivity"),
    ("QVQHVESGGGLVQAGGSLRLSCAASGRIFYCYAMGWYRQAPGKERELVAAISWSGGSTYYADSVKGRFTISRDNAKNTVYLQMNSLKPEDTAVYYCARRYRGGYKYDYWGQGTQVTVSS", "high polyreactivity"),
]

Quick one: give me polyreactivity (PSR sort gate) for each item below, same order please.
1. QVQLVESGGGLVQAGGSLRLSCAASGITFGRNTMGWYRPAPGKERELVAAIDSGGNTYADSVKGRFTISRDNAKNTVYLQMNSLKAEDTAVYYCAVDGGEFSSYGYWGQGTQVTVSS
2. QVQLVESGGGLVQAGGSLRLSCAASGRTFLLNAMGWYRQAPGKERELVATITYSGGITYYADSVKGRFTISRDNAKNTVYLQMNSLKPEDTAVYYCSTSGPQYYSRNFDYWGQGTQVTVSS
3. QVQLVETGGGLVQAGGSLRLSCDASGSTFVRYVMGWYRQAPGKERELVAAISRRGGSTYYADSVKGRFTISRANAKNTVYLQMNSLKPEDNAVYYCAGRGGRYFPYHGTIRYDYWGQCTQVTVSS
4. QVQHVESGGGLVQAGGSLRLTCAATGRIFYTNTMGWYRQAPGKEREFVAAISWRGGSTYYADSVKGRFTISRDNAKNTVYLQMNSLKPEDTAVYYCAKTRTYFLSRYVSWGQGTQVTVSS
5. QVQLVESGGGLVQAGGSLRLSCAASARTFSYYTMGWSRQEPGKARELVARISNRGTNTYYADSVKGRFTISRDNAKNTVYLQMNSLKPEDTAVYYFAKYYYSSIVGYDSWGQGTQLTVSS

low polyreactivity
low polyreactivity
high polyreactivity
high polyreactivity
low polyreactivity

Please report the recorded polyreactivity (PSR sort gate) for QVQLVESGGGLVQAGGSLRLSCAASGSIFSTYAMGWYRQAPGKERELVAAINRGTSTNYADSVKGRFTISRDNAKNTVYLQMNSLKPEDTAVYYCAAYYRGRYGPRRSEYWGQGTQVTVSS .
high polyreactivity
